B1: 3'-5' exoribonuclease 1, residues 65 to 114; numbered along this chain, Q8IV48 (parent)
chain: VYKEIAITNGCINRMSKEELRAKLSEFKLETRGVKDVLKKRLKNYYKKQK

# Variants of: B1
# EXPERIMENTAL_DETAILS: abundance fitness (aPCA) (normalised: wild type 0, dead -1); higher = more abundant; growth selection in yeast, the domain comes from the species named
# CONDITION_LABEL: Homo sapiens
Could you label it label 1 if measured abundance fitness is -0.1 or higher, and label 0 otherwise?

Query block: Is the recorded value of abundance fitness equal to or greater than -0.1 for this variant? A22G
Result block: label 0

Query block: Please check the record V37S and state if its abundance fitness is at or above -0.1.
Result block: label 0

Query block: Please indicate if the recorded abundance fitness for E19R meets or exceeds -0.1.
Result block: label 0

Query block: Could you tell me if the measured abundance fitness of K40N reaches -0.1 or more?
Result block: label 0

Query block: # check: abundance fitness of D36S is greater than or equal to -0.1
Result block: label 1

Query block: Identify whether the reported abundance fitness of the following variant is -0.1 or greater: F27K
Result block: label 1

Query block: // inclusive: abundance fitness at least -0.1? input: C11G
Result block: label 1

Query block: I'd appreciate it if you could say whether S25V has abundance fitness at least equal to -0.1.
Result block: label 0

Query block: Determine whether this variant has abundance fitness no lower than -0.1: N9D
Result block: label 0

Query block: Does abundance fitness meet or surpass -0.1 for A22D ?
Result block: label 0

Query block: Form field: abundance fitness at least -0.1? Entry: L29H
Result block: label 0

Query block: Evaluate M15W : abundance fitness at minimum -0.1?
Result block: label 0

Query block: Exam item: decide whether the reported abundance fitness for F27I is at least -0.1.
Result block: label 1

Query block: Could you please find out whether E4D has abundance fitness that meets -0.1 or exceeds it?
Result block: label 1

Query block: Quick check, abundance fitness >= -0.1? F27E
Result block: label 1

Query block: Is the recorded value of abundance fitness equal to or greater than -0.1 for this variant? F27H
Result block: label 1

Query block: API: above_or_equal(metric=abundance fitness, cutoff=-0.1) for item N9P
Result block: label 1

Query block: Evaluate V34C : abundance fitness at minimum -0.1?
Result block: label 1

Query block: Can L24W be said to have abundance fitness at or above -0.1?
Result block: label 0

Query block: Reported abundance fitness reaches at least -0.1 for A22W ?
Result block: label 0

Query block: abundance fitness >= -0.1 for V37C ?
Result block: label 0

Query block: Test whether the variant E30W records abundance fitness of -0.1 or higher.
Result block: label 0
